target: Gal(b1-3)GalNAc(b1-4)[Neu5Ac(a2-3)]Gal(b1-4)Glc; test: glycan array binding signal (z-score within array); higher = stronger binding; settings: glycan notation: IUPAC condensed, linker removed
The entries come from a sample that favours the strongest signals as a whole.
The following binders are shown together with reported glycan array binding signal (z-score) values.
assay metric: glycan array binding signal (z-score)

>>> obs_value("Pwp6 (Candida glabrata) (protein) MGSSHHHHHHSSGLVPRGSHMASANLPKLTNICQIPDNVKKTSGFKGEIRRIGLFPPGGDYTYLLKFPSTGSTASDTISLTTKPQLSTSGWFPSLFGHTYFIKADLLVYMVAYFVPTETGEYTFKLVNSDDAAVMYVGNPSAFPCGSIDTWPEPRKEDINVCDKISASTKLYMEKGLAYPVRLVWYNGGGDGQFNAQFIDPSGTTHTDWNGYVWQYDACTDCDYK")
-0.134
>>> obs_value("SBD-G4S3-SBD (protein) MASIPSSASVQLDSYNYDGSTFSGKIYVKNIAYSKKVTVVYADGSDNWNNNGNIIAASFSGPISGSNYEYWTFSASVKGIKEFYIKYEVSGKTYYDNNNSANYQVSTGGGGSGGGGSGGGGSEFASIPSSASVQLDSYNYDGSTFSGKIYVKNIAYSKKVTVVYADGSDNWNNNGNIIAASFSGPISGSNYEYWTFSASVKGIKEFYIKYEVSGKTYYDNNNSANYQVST")
-0.263
>>> obs_value("Epa1 (Candida glabrata) (protein) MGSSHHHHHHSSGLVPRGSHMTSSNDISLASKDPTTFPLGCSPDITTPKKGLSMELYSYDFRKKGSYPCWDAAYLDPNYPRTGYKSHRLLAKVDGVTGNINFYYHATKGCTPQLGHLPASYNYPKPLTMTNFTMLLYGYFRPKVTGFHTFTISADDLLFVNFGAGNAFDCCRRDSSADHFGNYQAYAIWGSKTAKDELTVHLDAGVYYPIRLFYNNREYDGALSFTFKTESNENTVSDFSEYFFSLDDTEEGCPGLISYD")
4.04
